Provenance of the data: ChEMBL document CHEMBL1146019

system: Human immunodeficiency virus 1; assay: Antiviral activity against multi drug-resistant HIV1 ET variant in human PHA-PBMC cells; format: functional, organism-based; details: Human immunodeficiency virus 1, PBMC
pIC50: −log10 of the molar value.
Classify by measured pIC50: class 1 if it is equal to or exceeds 8, class 0 if it is smaller.

| compound | system | class label |
| --- | --- | --- |
| CC(C)CN(C[C@@H](O)[C@H](Cc1ccccc1)NC(=O)O[C@H]1CCOC1)S(=O)(=O)c1ccc(N)cc1 | Human immunodeficiency virus 1 | class 0 |
| CC(C)(C)NC(=O)[C@@H]1CN(Cc2cccnc2)CCN1C[C@@H](O)C[C@@H](Cc1ccccc1)C(=O)N[C@H]1c2ccccc2C[C@H]1O | Human immunodeficiency virus 1 | class 0 |
| CC(C)CN(CC(O)C(Cc1ccccc1)NC(=O)O[C@@H]1C[C@@H]2CCO[C@@H]2C1)S(=O)(=O)c1ccc(CO)cc1 (stereo partly specified) | Human immunodeficiency virus 1 | class 1 |
| Cc1c(O)cccc1C(=O)N[C@@H](CSc1ccccc1)[C@H](O)CN1C[C@H]2CCCC[C@H]2C[C@H]1C(=O)NC(C)(C)C | Human immunodeficiency virus 1 | class 0 |

----------
tested on: Human immunodeficiency virus 1; experiment: Antiviral activity against multi drug-resistant HIV1 C variant in human PHA-PBMC cells; type: functional, organism-based; conditions: Human immunodeficiency virus 1, PBMC

| molecule | IC50 |
| --- | --- |
| CC(C)c1nc(CN(C)C(=O)N[C@H](C(=O)N[C@@H](Cc2ccccc2)C[C@H](O)[C@H](Cc2ccccc2)NC(=O)OCc2cncs2)C(C)C)cs1 | > 1000 nM |
| CC(C)CN(CC(O)C(Cc1ccccc1)NC(=O)O[C@@H]1C[C@@H]2CCO[C@@H]2C1)S(=O)(=O)c1ccc(CO)cc1 (some centres undefined) | 5 nM |
| CC(C)(C)NC(=O)[C@@H]1CN(Cc2cccnc2)CCN1C[C@@H](O)C[C@@H](Cc1ccccc1)C(=O)N[C@H]1c2ccccc2C[C@H]1O | 500 nM |
| CC(C)CN(C[C@@H](O)[C@H](Cc1ccccc1)NC(=O)O[C@H]1CO[C@H]2OCC[C@H]21)S(=O)(=O)c1ccc(N)cc1 | 3.5 nM |

----------
The following compounds are shown together with reported pIC50 values.
tested on: Human immunodeficiency virus 1; test: Antiviral activity against multi drug-resistant HIV1 C variant in human PHA-PBMC cells; format: functional, organism-based; conditions: Human immunodeficiency virus 1, PBMC
pIC50: −log10 of the molar value.
measured metric: pIC50

| smiles entry | recorded number |
| --- | --- |
| Cc1c(O)cccc1C(=O)N[C@@H](CSc1ccccc1)[C@H](O)CN1C[C@H]2CCCC[C@H]2C[C@H]1C(=O)NC(C)(C)C | 6.51 |
| CC(C)CN(C[C@@H](O)[C@H](Cc1ccccc1)NC(=O)O[C@H]1CCOC1)S(=O)(=O)c1ccc(N)cc1 | 6.52 |
| CC(C)(C)NC(=O)[C@@H]1C[C@@H]2CCCC[C@@H]2CN1C[C@@H](O)[C@H](Cc1ccccc1)NC(=O)[C@H](CC(N)=O)NC(=O)c1ccc2ccccc2n1 | 7.00 |

----------
system: Human immunodeficiency virus 1; assay: Antiviral activity against HIV1 LAI isolate in human PHA-PBMC cells; assay type: functional, organism-based; settings: Human immunodeficiency virus 1, PBMC
pIC50: −log10 of the molar value.
measured metric: pIC50

| compound | system | recorded number |
| --- | --- | --- |
| CC(C)(C)NC(=O)[C@@H]1CN(Cc2cccnc2)CCN1C[C@@H](O)C[C@@H](Cc1ccccc1)C(=O)N[C@H]1c2ccccc2C[C@H]1O | Human immunodeficiency virus 1 | 7.49 |
| CC(C)CN(CC(O)C(Cc1ccccc1)NC(=O)O[C@@H]1C[C@@H]2CCO[C@@H]2C1)S(=O)(=O)c1ccc(CO)cc1 (stereo partly specified) | Human immunodeficiency virus 1 | 8.74 |
| CC(C)(C)NC(=O)[C@@H]1C[C@@H]2CCCC[C@@H]2CN1C[C@@H](O)[C@H](Cc1ccccc1)NC(=O)[C@H](CC(N)=O)NC(=O)c1ccc2ccccc2n1 | Human immunodeficiency virus 1 | 7.85 |
| Cc1c(O)cccc1C(=O)N[C@@H](CSc1ccccc1)[C@H](O)CN1C[C@H]2CCCC[C@H]2C[C@H]1C(=O)NC(C)(C)C | Human immunodeficiency virus 1 | 7.85 |
| CC(C)c1nc(CN(C)C(=O)N[C@H](C(=O)N[C@@H](Cc2ccccc2)C[C@H](O)[C@H](Cc2ccccc2)NC(=O)OCc2cncs2)C(C)C)cs1 | Human immunodeficiency virus 1 | 7.37 |
| CC(C)CN(C[C@@H](O)[C@H](Cc1ccccc1)NC(=O)O[C@H]1CCOC1)S(=O)(=O)c1ccc(N)cc1 | Human immunodeficiency virus 1 | 7.47 |
